Reference source: PubChem BioAssay (NCI)

Tested on: SF-268 CNS
Experiment: NCI tumour cell line growth inhibition, 48 h
metricName: TGI

Examples with their reported TGI follow.
1. c1ccc(-c2nc(Nc3ccc(-c4nc5ccccc5[nH]4)cc3)nc(N3CCOCC3)n2)cc1
3.24 µM
2. O=c1cc/c(=N\Nc2ccccc2)c(=O)/c1=N/Nc1ccccc1
> 50 µM
3. Cc1ccc(NC(=O)c2ccnc(C(F)(F)F)c2)cc1-c1cc(OCCO)nc(N2CCOCC2)c1
23.7 µM
4. O=S(=O)(CC1=NC2C=CC=CC2N=C1)NCc1ccccc1 (configuration not stated)
> 100 µM
5. Cc1cc2c(cn1)C(=O)OCC2
> 100 µM

So for O=C(Nc1ccccc1Cl)c1cnc2ccc(C3CCNCC3)cn12 , the logged TGI turned out to be > 100 µM

In plain terms, O=C1C(NCCc2cc(Br)c(O)c(Br)c2)=CC(=O)c2ncccc21 has a documented TGI of 40.3 µM

Field TGI (entry Oc1ccccc1C=Nc1ccc(Oc2ccc(Cl)cc2)c(Cl)c1 ) reads 43.5 µM

Noted for N#Cc1c(-c2ccccc2)c(C#N)c(=O)n(NS(=O)(=O)c2ccccc2)c1O : its TGI reads > 100 µM

Query CSC(=S)N(C)c1nc(=[N+](C)C)ss1 yields TGI of > 100 µM

Reported TGI of c1ccc(C2=NN(c3ccccc3)C3(S2)SC(c2ccccc2)(c2ccccc2)c2ccccc23)cc1 (configuration not stated) : > 100 µM

For record O=C(CC(=O)Nc1ccc(Cl)cc1)NNCC(=O)Nc1nc(-c2ccccc2)cs1 the listed TGI is > 100 µM

----------
Test system: A498 renal
Assay: NCI tumour cell line growth inhibition, 48 h
metricName: TGI

# example entries with known answers
1) COc1nccc(-c2c(-c3ccc(F)cc3)ncn2C2CCC(O)CC2)n1 (stereo not drawn)
> 100 µM
2) COC(=O)/C=C/c1cc(OC)c2c(c1)C(C(=O)OC)C(c1ccc(OC)c(OC)c1)O2 (stereo not drawn)
> 100 µM
3) CCCCCCC(N)(CCCCCC)C(=O)Nn1c(C)ccc1C
> 100 µM
4) COc1ccc(/C=C2/C(=O)N(C(=O)c3ccc(Cl)cc3)N=C2C)cc1OC
> 100 µM

TGI measured on CCOP(=O)(CS(C)=O)O[C@@H]1C[C@H](C)CC[C@H]1C(C)C (stereo partly drawn) = 4.87 µM

TGI reading for CCc1ccccc1NC(=O)CCc1nc(=S)[nH][nH]1 : > 100 µM

For Cn1c2ccccc2c2c(=O)n(CCCC(=O)NCC(=O)OC(=NC3CCCCC3)NC3CCCCC3)c3c(-c4ccccc4)nnn3c21 the compound record lists TGI as > 100 µM

get_value(item= O=C(Nc1ccccc1Cl)c1cnc2ccc(C3CCNCC3)cn12 , readout=TGI) returns > 45.5 µM

CCOC(=O)c1cc2c(cc1Cl)SC(N(c1ccc(F)cc1)S(=O)(=O)c1ccc(OC)cc1)=NS2(=O)=O yielded TGI of 45.9 µM

Noted for C[C@]12CC[C@H]3[C@@H](CC=C4C[C@@H](O)CC[C@@]43C)[C@@H]1C/C(=C\c1cccc(OCCN3CCOCC3)c1)[C@@H]2O : its TGI reads > 100 µM

Looking up CN1CC=C(OP(=O)(NCc2ccccc2)N(CCCl)CCCl)CC1 (stereo not drawn) , I see its TGI listed as > 100 µM

// COc1ccc(C2CC(=O)Nc3c2c(C)nn3-c2nc3ccccc3[nH]2)cc1 (stereo not drawn) : TGI value = 5.46 µM

Reported TGI of COc1cc2c(cc1OCCCCCOc1cc(-c3ccc(F)cc3)nc(C)n1)N=C[C@@H]1CCCN1C2=O : > 100 µM

Kindly note the recorded TGI for Cn1c(=O)nc2n(CCO)c(-c3ccccc3)c(-c3ccccc3)nc-2c1=O , which is > 100 µM

Noted for Cc1cccc(C(C)O)n1 (stereo not drawn) : its TGI reads > 100 µM

Just so you know, measured TGI for Nc1cc(N)c2nc(-c3ccccc3)c(Nc3ccc(F)cc3)nc2c1 came out at 33.8 µM

response.value for OCCNc1nc(NCCO)nc(Nc2ccc(C3=NN(c4cc(Cl)cc(Cl)c4)C(c4ccc(Cl)cc4)C3)cc2)n1 (stereo not drawn) (field: TGI) = 3.57 µM

Input O=C(O)Cc1cc(=O)oc2cc(O)c(Cl)cc12 . Output TGI: > 100 µM

get_value(item= COc1ccc(-c2ccc(/C=N/n3cn[nH]c3=S)o2)c([N+](=O)[O-])c1 , readout=TGI) returns 10.3 µM

Item: CCOc1ccc(C2c3[nH]c4ccccc4c3CCN2C(=O)c2cccs2)cc1 (stereo not drawn) | TGI: > 100 µM
